Recorded measurements of mAb Binding Response (nm), one per entry
Target: T1, monkey ANGPTL8 expressed with C-terminal mouse IgG2a Fc tag (MfANGPTL8-mFc; SEQ ID NO: 341) (cynomolgus monkey)
T1 construct: also called cynomolgus monkey ANGPTL8
T1 chain: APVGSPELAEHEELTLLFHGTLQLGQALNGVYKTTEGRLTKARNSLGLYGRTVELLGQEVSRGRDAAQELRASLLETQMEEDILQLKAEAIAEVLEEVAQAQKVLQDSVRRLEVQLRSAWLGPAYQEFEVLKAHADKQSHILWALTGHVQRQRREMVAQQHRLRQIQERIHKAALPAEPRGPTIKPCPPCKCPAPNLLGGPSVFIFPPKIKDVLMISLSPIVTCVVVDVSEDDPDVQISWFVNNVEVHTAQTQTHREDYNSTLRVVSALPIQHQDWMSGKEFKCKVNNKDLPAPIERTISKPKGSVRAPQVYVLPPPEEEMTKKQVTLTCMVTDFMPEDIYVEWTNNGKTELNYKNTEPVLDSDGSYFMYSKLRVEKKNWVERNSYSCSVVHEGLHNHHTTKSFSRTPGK
Test: BLI Octet, captured antigen, 100 nM mAb, 25C

[
  {
    "binder": "H4H15334P (antibody, human IgG4, V domains shown, H4H prefix: human IgG4 Fc) VH: QVQLQESGPGLVKPSQTLSLTCTVSGGSINSGGYYWNWIRQHPGKGLEWIGYIYYSGSTYFNPSLKSRVTISIDTSKNQFSLKLSSVTAADTAVYYCAREGIYAFDYWGQGTLVTVSS VL: DIQMTQSPSSLSASVGDRVTITCRASQGIRNDLGWYQQKPGKAPKRLIYSASSLQSGVPSRFGGSGSGTEFTLTISSLQPEDFATYYCLQHNSYPWTFGQGTKVEIK",
    "measurementUnit": "nm",
    "mAb Binding Response (nm)": 0.01
  },
  {
    "binder": "H4H15343P (antibody, human IgG4, V domains shown, H4H prefix: human IgG4 Fc) VH: QVQLVESGGGVVQPGRSLRLSCAASGFTFSSYGMHWVRQAPGKGLEWVAVISYAGSNKYYADSVKGRFTISRDNSKNTLYLQMNGLRAEDTAVYYCAKDPYGDYEGVLDYWGQGTLVTVSS VL: DIQMTQSPSSLSASVGDRVTITCQASQDISNYLNWYQQKPGKAPKLLIYDASNLETGVPSRFSGSGSGTDFTFTISSLQPEDIATYYCQQYDHLPITFGQGTRLEIK",
    "measurementUnit": "nm",
    "mAb Binding Response (nm)": 0.2
  },
  {
    "binder": "H4H15330P (antibody, human IgG4, V domains shown, H4H prefix: human IgG4 Fc) VH: QVQLVESGGGLVKPGGSLRLSCAASGFTFSDYYMSWIRQAPGKGLEWISHISGSGRTTHYADSMKGRFTISRDNAKNSLYLQMNSLRAEDTAVYYCVREGGFNWNYEGTFDIWGQGTMVTVSS VL: DIVMTQTPLSSPVTLGQPASISCRSSQSLLHSDQNTYLSWLHQRPGQPPRLLIYKISNRFSGVPDRFSGSGAGTDFTLKISRVEAEDVGIYYCMQGTQFPLTFGGGTKVEIK",
    "measurementUnit": "nm",
    "mAb Binding Response (nm)": 0.39
  },
  {
    "binder": "H4H15314P2 (antibody, human IgG4, V domains shown, H4H prefix: human IgG4 Fc) VH: QVQLVQSGAEVKKPGASVKVSCKASGYTFTSYDINWVRQATGQGLEWMGWMNPNGDNTGYAQKFQGRVTMTGDTSISTAYMELSSLRSEDTAVYYCAREGIWGFDPWGQGTLVTVSS VL: DIQMTQSPSSLSASVGDRVTITCRASQDIRNDLGWYQQKPGKAPKRLIYAASSLQSGVPSRFSGSGSGTEFTLTISSLQPEDFATFYCLQHNTFPRTFGQGTKVEIK",
    "measurementUnit": "nm",
    "mAb Binding Response (nm)": 0.01
  },
  {
    "binder": "H4H15335P (antibody, human IgG4, V domains shown, H4H prefix: human IgG4 Fc) VH: QVQLVESGGGVVQPGRSLRLSCAASGFTFNNYGIHWVRQAPGKGLEWVAVISYDESNKYYADSVKGRFTISRDNSKNTLYLQMNSLRAEDTAVYYCAKDIRIAARRHYYYYGMDVWGQGTTVTVSS VL: DIQMTQSPSSVSASVGDRVTITCRASQGISRWLAWYQQKPGKAPKLLIYAASSLESGVPARFSGSGSGTDFTLTISSLQPEDFATYYCQQANSFPITFGPGTKVDIK",
    "measurementUnit": "nm",
    "mAb Binding Response (nm)": 0.04
  },
  {
    "binder": "H4H15346P (antibody, human IgG4, V domains shown, H4H prefix: human IgG4 Fc) VH: EVQLVESGGGLVQPGGSLRLSCAASGFTFSNYAMSWVRQAPGKGLEWVSTISDTGGSTYYADSVKGRFALSRDNSRNTLYLQMNSLRAEDTAVYYCAKEGPPDYWGQGTLVTVSS VL: EIVLTQSPATLSLSPGERATLSCRTSQSVSIYLAWYQQKPGQAPRLLIYDASKRATGIPARFSGRGSGTDFTLTISSLEPEDFAVYYCQQRSNWPLTFGQGTRLEIK",
    "measurementUnit": "nm",
    "mAb Binding Response (nm)": 0.01
  },
  {
    "binder": "H4H15347P (antibody, human IgG4, V domains shown, H4H prefix: human IgG4 Fc) VH: EVQLVESGGGLVQPGGSLRLSCAASGFTFRNYAMNWARQAPGKGLEWVSGITGSGGATYYADSVKGRFTISRENSKNTLFLQMDTLRAEDTAVYYCAKDRRYFPTSGGPQWGQGTLVTVSS VL: DIVMTQSPLSLPVTPGEPASISCRSSRSLLHSSGYNYLDWYLQKPGQSPQLLLYLGSNRASGVPDRFSGSGSGTYFTLKISRVDAEDVGVYYCMQALQTPWTFGQGTKVEIK",
    "measurementUnit": "nm",
    "mAb Binding Response (nm)": 0.29
  },
  {
    "binder": "H4H15341P (antibody, human IgG4, V domains shown, H4H prefix: human IgG4 Fc) VH: EVQLVESGGGLVQPGGSLRLSCAASGFTFNNHEMNWVRQAPGKGLEWVSYISSSGNTVTYADFLKGRFTISRDNAKNSLFLQMNSLRDEDTAVYYCARDHLSGTSPLSYWGQGTLVTVSS VL: DIQMTQSPSSLSASVGDRVTITCQASQDINNYLNWFQQKPGKAPKLLIFDASNLETGVPSRFSGSGSGTDFTFTISSLQPEDIATYFCQQYENLPYTFGQGTKLEIK",
    "measurementUnit": "nm",
    "mAb Binding Response (nm)": 0.1
  },
  {
    "binder": "H4H15318P (antibody, human IgG4, V domains shown, H4H prefix: human IgG4 Fc) VH: QVQLVESGGGVVQPGRSLRLSCTASGFTFGNFGIHWVRQAPGKGLEWVAVISYDGTDKFYADPVKGRFIISRDNSMNILYLQMNSLRAEDTAVYYCAKDGEMELRGYYYYYGMDVWGQGTTVTVSS VL: DIQMTQSPSSVSASVGDRVTITCRASQGINTWLAWYQQKPGTAPKLLIFAASSLESGVPSRFSGSGFGTDFTLTISSLQSEDLATYFCQQVHSPPYTFGQGTKLEIK",
    "measurementUnit": "nm",
    "mAb Binding Response (nm)": 0.2
  },
  {
    "binder": "H4H15319P (antibody, human IgG4, V domains shown, H4H prefix: human IgG4 Fc) VH: EVQLVESGGGVVRPGGSLRLSCAASGFTVDDYDMSWVRQTPGKGLEWISGINWNGGNTGYADSVKGRFIISRDSAKNSLFLQMNSLRAEDTALYHCWGAIGAFDIWGQGTMVTVSS VL: DIVMTQSPLSSPVTLGQPASISCRSSQSLVHSDGGTYLSWLQQRPGQPPRLLIYKIFNRFSGVPDRFSGSGAGTDFTLRISRVEAEDVGVYYCMQTTQFPLTFGGGTKVEIK",
    "measurementUnit": "nm",
    "mAb Binding Response (nm)": 0.26
  }
]
